Origin of measurements: the supplement of paper PMC3545927

- Test System: furin, P09958;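 note: purified furin at 1:10 enzyme:substrate in 50 mM HEPES pH 7.5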
- Sequence (P09958 whole entry): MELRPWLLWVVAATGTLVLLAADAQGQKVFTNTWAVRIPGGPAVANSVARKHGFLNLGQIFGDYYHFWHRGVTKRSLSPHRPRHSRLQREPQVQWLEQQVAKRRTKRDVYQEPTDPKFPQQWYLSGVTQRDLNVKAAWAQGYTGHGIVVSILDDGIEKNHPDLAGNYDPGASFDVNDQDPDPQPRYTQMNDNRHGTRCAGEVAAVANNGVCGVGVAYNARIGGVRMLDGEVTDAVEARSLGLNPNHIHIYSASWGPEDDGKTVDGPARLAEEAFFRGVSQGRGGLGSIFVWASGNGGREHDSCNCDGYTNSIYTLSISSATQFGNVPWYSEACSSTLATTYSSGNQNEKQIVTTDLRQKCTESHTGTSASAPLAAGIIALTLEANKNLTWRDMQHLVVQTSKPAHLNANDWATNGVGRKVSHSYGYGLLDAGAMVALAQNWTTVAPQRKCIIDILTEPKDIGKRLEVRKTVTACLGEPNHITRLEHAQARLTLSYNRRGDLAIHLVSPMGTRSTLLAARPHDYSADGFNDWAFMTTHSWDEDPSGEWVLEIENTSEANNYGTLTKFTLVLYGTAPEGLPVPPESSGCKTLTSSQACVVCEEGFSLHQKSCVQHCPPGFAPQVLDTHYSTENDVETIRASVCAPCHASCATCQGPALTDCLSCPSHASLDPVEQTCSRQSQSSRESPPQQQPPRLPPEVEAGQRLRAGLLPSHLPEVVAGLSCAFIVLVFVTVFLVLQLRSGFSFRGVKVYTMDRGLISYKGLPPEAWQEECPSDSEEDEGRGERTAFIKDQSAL
- Protocol: furin cleavage Z-score vs untreated control; higher = more cleavage, active = 3.5 or more, inactive = 1 or less, 8 variable residues between constant flanks
- Run Parameters: 7.5 min
The other results are listed elsewhere or left out. No count for the full screen is at hand.
Bucketed by reported furin cleavage Z-score, buckets being I (below -0.2), II (-0.2 to below 4), III (4 or more)

Ask | Input CARLKRLCSSAGNASASA [FS-2990] ; output its category
Reply | II

Ask | Input CARIKRSRKLAGNASASA [FS-3156] ; output its category
Reply | III

Ask | Input CADDMEECSQAGNASASA [HC1811] ; output its category
Reply | II

Ask | Input CARSKRDGSEAGNASASA [FS-1868] ; output its category
Reply | II

Ask | Input CARSKRDVGSAGNASASA [FS-2379] ; output its category
Reply | III

Ask | Input CACPAGHAVGAGNASASA [HC746] ; output its category
Reply | I

Ask | Input CAVHVRIRRDAGNASASA [FS-1428] ; output its category
Reply | III

Ask | Input CARETRYVELAGNASASA [FS-2918] ; output its category
Reply | II

Ask | Input CAPVVVGTTDAGNASASA [HC417] ; output its category
Reply | I

Ask | Input CATTPCSESWAGNASASA [HC1892] ; output its category
Reply | I

Ask | Input CARSKRDISSAGNASASA [FS-3083] ; output its category
Reply | III

Ask | Input CALEECSQHLAGNASASA [HC1665] ; output its category
Reply | II

Ask | Input CAMAARMKRKAGNASASA [FS-1467] ; output its category
Reply | III

Ask | Input CARAGRDVGSAGNASASA [FS-1989] ; output its category
Reply | II

Ask | Input CARVWRATSSAGNASASA [FS-2110] ; output its category
Reply | II

Ask | Input CASTPCSAPLAGNASASA [HC2559] ; output its category
Reply | I

Ask | Input CAEVPCHAPSAGNASASA [HC2363] ; output its category
Reply | II

Ask | Input CARKSRWAKLAGNASASA [FS-2982] ; output its category
Reply | I

Ask | Input CAPRSRARKLAGNASASA [FS-842] ; output its category
Reply | II

Ask | Input CADPNIRTGVAGNASASA [HC798] ; output its category
Reply | II

Ask | Input CARIKRSAPLAGNASASA [FS-2954] ; output its category
Reply | III

Ask | Input CARIKRQHSSAGNASASA [FS-1898] ; output its category
Reply | III

Ask | Input CAEYPVGSQLAGNASASA [HC1237] ; output its category
Reply | I

Ask | Input CALTSMLTDPAGNASASA [HC1246] ; output its category
Reply | II

Ask | Input CAMEECSQHKAGNASASA [HC1774] ; output its category
Reply | I

Ask | Input CALNERIRRDAGNASASA [FS-940] ; output its category
Reply | III

Ask | Input CATFYGMWPLAGNASASA [HC555] ; output its category
Reply | I

Ask | Input CALATRSFGSAGNASASA [HC1334] ; output its category
Reply | I

Ask | Input CAHKKRSARDAGNASASA [FS-1338] ; output its category
Reply | III

Ask | Input CARSKRRKYSAGNASASA [FS-2380] ; output its category
Reply | II
